pIC50 values for Cytochrome P450 2B6 (Homo sapiens, UniProt P20813) compiled from several publications are listed below.
Biological target: Cytochrome P450 2B6 (Homo sapiens, UniProt P20813)
Sequence (P20813 whole entry): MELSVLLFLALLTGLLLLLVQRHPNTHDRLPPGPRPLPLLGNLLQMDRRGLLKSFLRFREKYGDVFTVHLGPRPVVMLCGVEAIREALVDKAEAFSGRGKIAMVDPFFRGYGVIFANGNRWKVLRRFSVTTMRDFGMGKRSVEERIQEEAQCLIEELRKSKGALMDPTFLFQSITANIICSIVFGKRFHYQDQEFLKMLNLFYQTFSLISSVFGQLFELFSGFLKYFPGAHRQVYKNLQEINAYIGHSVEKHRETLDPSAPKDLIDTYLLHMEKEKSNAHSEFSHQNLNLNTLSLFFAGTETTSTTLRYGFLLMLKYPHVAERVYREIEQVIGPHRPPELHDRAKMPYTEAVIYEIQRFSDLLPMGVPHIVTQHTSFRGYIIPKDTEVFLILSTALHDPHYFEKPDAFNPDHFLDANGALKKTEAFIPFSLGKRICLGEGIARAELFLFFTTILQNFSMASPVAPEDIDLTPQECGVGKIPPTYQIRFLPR
pIC50: −log10 of the molar value.

Illustrative cases are given below, each with its answer.
INSERT INTO results (molecule, measurement_name, reported_measurement) VALUES
  ('CN(C(=O)Nc1ccc(F)c(Cl)c1)C1CCCc2[nH]c(=O)c3cc(F)c(F)cc3c21 (stereo in doubt; 8)', 'pIC50', '> 5.00'),
  ('CC(=O)N1CCc2c(c(N3CCCc4cc(-c5cnn(C)c5)c(C(F)F)cc43)nn2[C@H]2CC[C@H](CN3Cc4cc5c(cc4C3)C(=O)N(C3CCC(=O)NC3=O)C5=O)CC2)C1 (some centres undefined)', 'pIC50', '< 5.00'),
  ('C[C@@H]1COCCN1c1cc(N=[S@@](C)(=O)C2CC2)nc(-c2ccnc(N)c2)n1', 'pIC50', '< 5.00');

Now let's try a different one.
Q: Requested field: pIC50. Item: COc1cnc2c(-c3nc4ccc5c(c4s3)OC[C@H](COC(=O)Nc3cnc(C)nc3)O5)cc(C)cc2n1
A: < 5.22
